# target-or-system: apical domain of CD71 (Screen 3: 'cynomolgus apical domain of human CD71') (cynomolgus (as paragraph 454 words it; ambiguous))
# method-notes: primary ELISA, RLU ratio to HSA
Each item that follows carries a reported Apical domain:HSA.
endpoint-label: Apical domain:HSA

CD71-binding FN3 domain SEQ ID NO: 327 (designed binder) MSLPAPKNLVVSRVTEDSARLSWTAPDAAFDSFEIGYWENAYKGEAIVLTVPGSERSYDLTGLKPGTEYWVQIGGVKGGNWSAPLSAIFTT; 227
CD71-binding FN3 domain SEQ ID NO: 305 (designed binder) MSLPAPKNLVVSRVTEDSARLSWTAPDAAFDSFEIAYFEQTYTGEAIVLTVPGSERSYDLTGLKPGTEYWVQIGGVKGGNWSAPLSAIFTT; 495
CD71-binding FN3 domain SEQ ID NO: 263 (designed binder) MSLPAPKNLVVSRVTEDSARLSWTAPDAAFDSFEIGYFENLYLGEAIVLTVPGSERSYDLTGLKPGTEYWVQIGGVKGGNWSSPLSAIFTT; 344
CD71-binding FN3 domain SEQ ID NO: 283 (designed binder) MSLPAPKNLVVSRVTEDSARLSWTAPDAAFDSFEIAYQELSLWGEAIVLTVPGSERSYDLTGLKPGTEYYVHIGGVKGGIWSSPLSAYSTT; 229
CD71-binding FN3 domain SEQ ID NO: 322 (designed binder) MSLPAPKNLVVSRVTEDSARLSWTAPDAAFDSFEIGYFEITRYGEAIILFVPGSERSYDLTGLKPGTEYWVQIGGVKGGNWSAPLSAIFTT; 252
CD71-binding FN3 domain SEQ ID NO: 309 (designed binder) MSLPAPENLVVSRVTEDSARLSWTAPDAAFDSFEIGYFENLYLGEAIVLTVPGSERSYDLTGLKPGTEYWVQIGGVKGGNWSAPLSAIFTT; 452
CD71-binding FN3 domain SEQ ID NO: 240 (designed binder) MSLPAPKNLVVSRVTEDSARLSWTAPDAAFDSFHIWYFEKANEGEAIPLVVPGSERSYDLTGLKPGTEYDVDIGGVKGGAWSIPLGARFTT; 71
CD71-binding FN3 domain SEQ ID NO: 254 (designed binder) MSLPAPKNLVVSRVTEDSARLSWTAPDAAFDSFEIGYFENLYLGEAIVLWVPGSERSYDLTGLKPGTEYWVQIGGVKGGNWSAPLSAIFTT; 448
CD71-binding FN3 domain SEQ ID NO: 249 (designed binder) MSLPAPKNLVVSRVTEDSARLSWTAPDAAFDSFEIGYWENAYRGEAIVLTVPGSERSYDLTGLKPGTEYVVFIGGVKGGVWSVPLSAIFTT; 556
CD71-binding FN3 domain SEQ ID NO: 323 (designed binder) MSLPAPKNLVVSRVTEDSARLSWTAPDAAFDSFEIGYFENLYLGEAIVLTVPGSERSYDLTGLKPGTEYWVQIGGVKGGNWSGPLSAIFTT; 95
CD71-binding FN3 domain SEQ ID NO: 261 (designed binder) MSLPAPKNLVVSRVTEDSARLSWTAPDAAFDSFYIAYAEPRPDGEAILLWVPGSERSYDLTGLKPGTEYSVLIHGVKGGLLSSPLHAYFTT; 714
CD71-binding FN3 domain SEQ ID NO: 324 (designed binder) MSLPAPKNLVVSRITEDSARLSWTAPDAAFDSFEIGYFENLYLGEAIVLTVPGSERSYDLTGLKPGTEYWVQIGGVKGGNWSAPLSAISTT; 462
CD71-binding FN3 domain SEQ ID NO: 307 (designed binder) MSLPAPKNLVVSRVTEDSARLSWTAPDAAFNSFEIGYFENLYLGEAIVLTVPGSERSYDLTGLKPGTEYWVQIGGVKGGTFSAPLSAIFTT; 72
CD71-binding FN3 domain SEQ ID NO: 247 (designed binder) MSLPAPKNLVVSRVTEDSARLSWTAPDAAFDSFEIGYFENLYLGEAIVLTVPGSERSYDLTGLKPGTEYWVQIGGVKGGEWSAPLSAIFTT; 679
CD71-binding FN3 domain SEQ ID NO: 248 (designed binder) MSLPAPKNLVVSRVTEDSARLSWTAPDAAFDSFEIGYFENLYLGEAIVLTVPGSERSYDLTGLKPGTEYVVFIGGVKGGDFSPPLSAIFTT; 550
CD71-binding FN3 domain SEQ ID NO: 245 (designed binder) MSLPAPKNLVVSRVTEDSARLSWTAPDAAFDSFEISYWEHTFNGEAIILFVPGSERSYDLTGLKPGTEYYVTIGGVKGGAWSPPLWAHFTT; 610
CD71-binding FN3 domain SEQ ID NO: 272 (designed binder) MSLPAPKNLVVSRVTEDSARLSWTAPDAAFDSFEIAYGEAAYDGEAIALLVPGSERSYDLTGLKPGTEYWVQIGGVKGGNWSAPLSAIFTT; 476
CD71-binding FN3 domain SEQ ID NO: 315 (designed binder) MSLPAPKNLVVSRVTEDSARLSWTAPDAAFDSFEIGYFENLYLGEAIVLTVPGSERSYDLTGLKPGTEYWVQIGGVKGGNWSAPLSAISTT; 73

Data origin, for the record: patent US20260151494A1
